- Test system: 7 cell lines (MB231Br, LN229, U373WT, U373KO, GBM8, MS21, PDIPG)
- Experiment summary: Drug screening on OBSCs, summary over the panel of seven tumor lines
- Type: cell-based, human
- Conditions: Homo sapiens, read-out: IC50 values, range over the cell lines
Measured property: IC50

Input: // returns reported IC50 for input Nc1ncn([C@@H]2O[C@H](CO)[C@@H](O)[C@H]2O)c(=O)n1 [Azacitidine]
Output: 200 to 400 µM

---

- System: GBM8 (high-passage patient-derived GBM line)
- Experiment summary: Drug screening of GBM8 tumor foci on OBSCs
- Format: cell-based, human
- Conditions: GBM8 on OBSCs; slope through the EC50
Here the recorded Slope is given for each entry.
// no unit, no text: just the number

Worked set:
[
  {
    "Molecule": "COc1cc([C@@H]2c3cc4c(cc3[C@@H](O[C@@H]3O[C@@H]5CO[C@@H](C)O[C@H]5[C@H](O)[C@H]3O)[C@H]3COC(=O)[C@H]23)OCO4)cc(OC)c1O [Etoposide]",
    "Measured target": "GBM8 (high-passage patient-derived GBM line)",
    "Slope": "-8.73E-02"
  },
  {
    "Molecule": "CC(=O)Nc1cccc(-n2c(=O)n(C3CC3)c(=O)c3c(Nc4ccc(I)cc4F)n(C)c(=O)c(C)c32)c1",
    "Measured target": "GBM8 (high-passage patient-derived GBM line)",
    "Slope": "-6.33E-01"
  },
  {
    "Molecule": "Nc1ncn([C@@H]2O[C@H](CO)[C@@H](O)[C@H]2O)c(=O)n1",
    "Measured target": "GBM8 (high-passage patient-derived GBM line)",
    "Slope": "-1.60E-02"
  },
  {
    "Molecule": "CC[C@]1(O)C[C@H]2CN(CCc3c([nH]c4ccccc34)[C@@](C(=O)OC)(c3cc4c(cc3OC)N(C=O)[C@H]3[C@@](O)(C(=O)OC)[C@H](OC(C)=O)[C@]5(CC)C=CCN6CC[C@]43[C@@H]65)C2)C1",
    "Measured target": "GBM8 (high-passage patient-derived GBM line)",
    "Slope": "-7.00E+00"
  },
  {
    "Molecule": "Cn1nnc2c(C(N)=O)ncn2c1=O [Temozolomide]",
    "Measured target": "GBM8 (high-passage patient-derived GBM line)",
    "Slope": "-6.60E-02"
  }
]

Input: // returns reported Slope for input N.N.O=C([O-])C1(C(=O)[O-])CCC1.[Pt+2]
Output: -8.60E-02

Input: Also O=NN(CCCl)C(=O)NC1CCCCC1 ?
Output: -1.46E-01

Input: Also Nc1ccn([C@@H]2O[C@H](CO)[C@@H](O)C2(F)F)c(=O)n1 ?
Output: -1.48E+00

Input: Also N.N.[Cl][Pt][Cl] [Cisplatin] ?
Output: -1.10E+00

---

Here the recorded EC50 is given for each entry.
- System: LN229 (established GBM line)
- Experiment summary: Drug screening of LN229 tumor foci on OBSCs
- Type: cell-based, human
- Conditions: dose required to kill 50% of the tumor

[
  {
    "Compound": "N.N.O=C([O-])C1(C(=O)[O-])CCC1.[Pt+2]",
    "Measured result": "133 µM"
  }
]

Below: the item to evaluate.
Input: Request body: readout EC50, system LN229 (established GBM line), query N.N.[Cl][Pt][Cl] [Cisplatin] . Return the value.
Output: 92.4 µM
